Can you tell me Emax for the items I'm about to list?
# experimentalSystem: human GLP-1R (Homo sapiens, UniProt P43220, G168S)
# Sequence (P43220 24-463 G168S): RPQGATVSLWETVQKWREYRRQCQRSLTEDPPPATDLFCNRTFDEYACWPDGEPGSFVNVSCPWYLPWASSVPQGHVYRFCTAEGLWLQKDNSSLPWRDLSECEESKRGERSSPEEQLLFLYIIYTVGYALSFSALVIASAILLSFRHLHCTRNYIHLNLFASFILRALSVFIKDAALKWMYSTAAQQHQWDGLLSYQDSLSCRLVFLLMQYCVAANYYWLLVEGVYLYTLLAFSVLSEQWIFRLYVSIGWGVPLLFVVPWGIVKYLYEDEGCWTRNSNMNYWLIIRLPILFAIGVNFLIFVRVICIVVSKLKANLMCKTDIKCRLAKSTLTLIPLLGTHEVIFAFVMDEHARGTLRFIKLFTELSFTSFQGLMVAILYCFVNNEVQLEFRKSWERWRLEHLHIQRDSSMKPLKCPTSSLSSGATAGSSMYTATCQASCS
# testMethodNotes: CHO GLP-1R Clone H6 cAMP HTRF agonist assay (Assay 1, high receptor density)
# Assay type: cell-based
# conditionSet: CHO GLP-1R clone H6; arithmetic mean, relative to saturating GLP-1 (1 μM); read-out: Assay 1 Emax (%)
Give the number; % is assumed, so skip it.

Exam item: Which Emax reading was recorded for the compound O=C(O)c1ccc2nc(CN3CCC(c4cccc(OCc5ccc(Cl)cc5F)n4)CC3)n(Cc3cnc[nH]3)c2c1 [Compound 312B] ?
Marked response: 68

Exam item: For Cn1cc(CCn2c(CN3CCC(c4cccc(OCc5ccc(Cl)cc5F)n4)CC3)nc3ccc(C(=O)O)cc32)nn1 [Compound 319B] , what is its reported Emax?
Marked response: 47

Exam item: Return reported Emax; argument: COCCn1c(CN2CCN(c3cccc(OCc4ccc(C#N)cc4F)n3)C[C@@H]2C)nc2ccc(C(=O)O)cc21 [Compound 173B]
Marked response: 85

Exam item: Need Emax of COCCCn1c(CN2CCC(c3cccc(OCc4ccc(Cl)cc4F)n3)CC2)nc2ccc(C(=O)O)cc21 [Compound 313B] , thanks.
Marked response: 75

Exam item: Quick one: Emax of Cc1noc(CCn2c(CN3CCC(c4cccc(OCc5ccc(Cl)cc5F)n4)CC3)nc3ccc(C(=O)O)cc32)n1 [Compound 304B] ?
Marked response: 74

Exam item: Fill in the blank: the reported Emax of COCCn1c(CN2CCN(c3cccc(OCc4ccc(Cl)cc4F)n3)C(C)(C)C2)nc2ccc(C(=O)O)cc21 [Compound 182B] is ____.
Marked response: 93

Exam item: Entry under review: COCCn1c(CN2CCN(c3nc(OCc4ccc(Cl)cc4F)ccc3F)CC2)nc2ccc(C(=O)O)cc21 [Compound 179B] . Reported Emax?
Marked response: 83

Exam item: Which Emax is reported for this compound? CC(C)n1cnnc1Cn1c(CN2CCC(c3cccc(OCc4ccc(Cl)cc4F)n3)CC2)nc2ccc(C(=O)O)cc21 [Compound 236B]
Marked response: 79

Exam item: Would you kindly share the measured Emax for CCn1cncc1Cn1c(CN2CCN(c3cccc(OCc4ccc(C#N)cc4F)n3)CC2)nc2ccc(C(=O)O)cc21 [Compound 152B] ?
Marked response: 75

Exam item: Tell me the measured Emax of O=C(O)c1ccc2nc(CN3CCC(c4cccc(OCc5ccc(Cl)cc5F)n4)CC3)n(CC3CCCCO3)c2c1 (centres unmarked) [Compound 323B] , please.
Marked response: 80

Exam item: What Emax value was documented for this compound, COCCn1c(CN2CCC(c3cccc(OCc4ccc(Cl)cc4F)n3)CC2)nc2ccc(C(=O)O)cc21 [Compound 176B] ?
Marked response: 87

Exam item: Query: Emax; subject: CCn1ccnc1Cn1c(CN2CCC(c3cccc(OCc4ccc(Cl)cc4F)n3)CC2)nc2ccc(C(=O)O)cc21 [Compound 314B]
Marked response: 69

Exam item: Suppose we examine the compound Cn1cc(CCn2c(CN3CCC(c4cccc(OCc5ccc(Cl)cc5F)n4)CC3)nc3ccc(C(=O)O)cc32)cn1 [Compound 307B] ; what Emax value has been reported?
Marked response: 77

Exam item: # query: Emax of entry CN1CC(Cn2c(CN3CCC(c4cccc(OCc5ccc(Cl)cc5F)n4)CC3)nc3ccc(C(=O)O)cc32)CC1=O (centres unmarked) [Compound 317B]
Marked response: 69
